Exercise: for every item that follows, state its recorded Ki.
target: Human α4β2 (Homo sapiens, UniProt P17787+P43681); assay: Binding at human α4β2 (Ki); method not described
Sequence (P43681 29-627 limits assumed): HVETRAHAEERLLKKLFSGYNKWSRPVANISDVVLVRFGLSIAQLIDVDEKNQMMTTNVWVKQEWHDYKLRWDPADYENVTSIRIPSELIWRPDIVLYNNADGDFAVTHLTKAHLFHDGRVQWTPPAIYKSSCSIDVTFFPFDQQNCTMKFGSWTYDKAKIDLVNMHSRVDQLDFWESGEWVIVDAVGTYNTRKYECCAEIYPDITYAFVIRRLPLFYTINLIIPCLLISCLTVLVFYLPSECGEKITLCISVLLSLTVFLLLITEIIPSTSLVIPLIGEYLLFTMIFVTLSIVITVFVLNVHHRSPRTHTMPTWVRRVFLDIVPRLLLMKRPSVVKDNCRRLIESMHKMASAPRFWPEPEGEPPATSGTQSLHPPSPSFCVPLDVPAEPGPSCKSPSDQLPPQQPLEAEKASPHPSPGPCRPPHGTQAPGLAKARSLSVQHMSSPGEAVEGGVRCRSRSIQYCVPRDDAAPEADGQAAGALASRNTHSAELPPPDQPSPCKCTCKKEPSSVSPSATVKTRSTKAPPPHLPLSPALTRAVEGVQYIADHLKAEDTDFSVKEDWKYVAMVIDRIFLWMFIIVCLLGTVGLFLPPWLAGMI
Sequence (P17787 26-502): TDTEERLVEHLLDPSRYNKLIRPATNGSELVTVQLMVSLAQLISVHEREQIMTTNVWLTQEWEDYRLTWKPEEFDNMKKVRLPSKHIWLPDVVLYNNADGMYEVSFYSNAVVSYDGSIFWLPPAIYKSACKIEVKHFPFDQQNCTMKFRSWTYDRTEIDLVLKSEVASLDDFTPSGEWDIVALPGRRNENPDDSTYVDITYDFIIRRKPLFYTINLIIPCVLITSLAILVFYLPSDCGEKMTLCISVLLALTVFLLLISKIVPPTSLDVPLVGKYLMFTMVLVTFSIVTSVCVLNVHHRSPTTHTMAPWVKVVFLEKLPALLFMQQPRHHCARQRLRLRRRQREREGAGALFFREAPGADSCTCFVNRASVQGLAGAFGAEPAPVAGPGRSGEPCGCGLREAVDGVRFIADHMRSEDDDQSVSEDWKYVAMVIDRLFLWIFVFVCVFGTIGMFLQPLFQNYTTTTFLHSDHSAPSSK
Value expressed in nM; do not type the unit.

Tested on Human α4β2 (Homo sapiens, UniProt P17787+P43681), the item O=C(OC1CCOCC1)C1C[C@H]2CNC[C@H]2C1 (mixture of isomers) showed Ki equal to 146

Form field Ki for item CC(C)OC(=O)C1C[C@H]2CNC[C@H]2C1 (mixture of isomers) on Human α4β2 (Homo sapiens, UniProt P17787+P43681): 7.8

Note to self: Ki of O=C(NCCCF)C1CC2CNCC(C2)C1 (stereo not drawn) with Human α4β2 (Homo sapiens, UniProt P17787+P43681) was 23.2

Observed Ki, Human α4β2 (Homo sapiens, UniProt P17787+P43681), CCCNC(=O)C1CC2CNCC(C2)C1 (stereo not drawn) : 10.4

Observed Ki, Human α4β2 (Homo sapiens, UniProt P17787+P43681), CCOC(=O)C1C[C@H]2CNC[C@H]2C1 (mixture of isomers) : 17.5

Reported Human α4β2 (Homo sapiens, UniProt P17787+P43681) Ki for item O=C(Nc1ccccc1)C1CC2CNCC(C2)C1 (stereo not drawn) was 12.7

Measured Ki (Human α4β2 (Homo sapiens, UniProt P17787+P43681)), entry C=CCNC(=O)C1CC2CNCC(C2)C1 (stereo not drawn) : 4.3

Tested on Human α4β2 (Homo sapiens, UniProt P17787+P43681), the item O=C(NCc1ccccc1)C1CC2CNCC(C2)C1 (stereo not drawn) showed Ki equal to 9

Given the compound O=C(NC1CCC1)C1CC2CNCC(C2)C1 (stereo not drawn) and test system Human α4β2 (Homo sapiens, UniProt P17787+P43681), the measured Ki is 308

Short answer on Human α4β2 (Homo sapiens, UniProt P17787+P43681) for O=C(OC1CC=CC1)C1C[C@H]2CNC[C@H]2C1 (mixture of isomers) , Ki: 22.5

Human α4β2 (Homo sapiens, UniProt P17787+P43681) data for O=C(C1C[C@H]2CNC[C@H]2C1)N1CC=CCC1 (mixture of isomers) ; its Ki: 28.4

Tested on Human α4β2 (Homo sapiens, UniProt P17787+P43681), the item O=C(NCC(F)(F)F)C1C[C@H]2CNC[C@H]2C1.O=C(O)C(F)(F)F (mixture of isomers) [trifluoroacetate] showed Ki equal to 261
